target_system: human Adenosine A2b receptor (Homo sapiens (Human), UniProt P29275)
Sequence (P29275 whole entry): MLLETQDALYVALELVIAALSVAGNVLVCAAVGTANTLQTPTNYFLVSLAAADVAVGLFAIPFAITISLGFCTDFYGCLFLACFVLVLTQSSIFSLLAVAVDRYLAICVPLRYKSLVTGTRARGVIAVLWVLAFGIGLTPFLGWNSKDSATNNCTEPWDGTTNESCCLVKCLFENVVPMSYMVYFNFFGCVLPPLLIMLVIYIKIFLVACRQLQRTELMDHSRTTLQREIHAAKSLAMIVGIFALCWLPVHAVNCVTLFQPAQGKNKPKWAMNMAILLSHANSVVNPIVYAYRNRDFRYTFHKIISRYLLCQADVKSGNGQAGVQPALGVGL
experiment: Adenosine receptor TR-FRET binding assay (A2b)
condition_context: TR-FRET, inhibition of binding of 30 nM CA200645, CHO cell membranes
Please note: Ki exactly at 3 nM is 0. Only values below 3 nM get 1.

Before answering, review these 2 worked examples.
Cc1cc(-c2sc(NC(=O)N3CC(=O)N[C@H](C)C3)nc2-c2cccc(C#N)c2)cc(C)n1 [Example 6.85]; 0
Cc1cc(-c2sc(NC(=O)N3CCC4(CCOCC4)C3)nc2-c2cccc(C#N)c2)cc(C)n1 [Example 6.29]; 0

(Q) Does this compound meet the criterion Ki < 3 nM? Cc1cc(-c2sc(NC(=O)N3CCN4C(=O)OCC4C3)nc2-c2cccc(C#N)c2)cc(C)n1 (stereo not drawn) [Example 6.13]
(A) 0

(Q) Does this compound meet the criterion Ki < 3 nM? Cc1cc(-c2sc(NC(=O)N3CCNC(=O)C3)nc2-c2cccc(C#N)c2)cc(C)n1 [Example 4.13]
(A) 1

(Q) Does this compound meet the criterion Ki < 3 nM? Cc1cc(-c2sc(NC(=O)N3C[C@H](C)NC[C@@H]3C)nc2-c2cccc(C#N)c2)cc(C)n1 [Example 7.7]
(A) 0

(Q) Does this compound meet the criterion Ki < 3 nM? Cc1cc(-c2sc(NC(=O)N3CCN[C@@H](CO)C3)nc2-c2cccc(C#N)c2)cc(Cl)n1 [Example 5.3]
(A) 1

(Q) Does this compound meet the criterion Ki < 3 nM? Cc1cc(-c2sc(NC(=O)N3CC4CN(C)CC43)nc2-c2cccc(C#N)c2)cc(C)n1 (stereo not drawn) [Example 6.120]
(A) 0

(Q) Does this compound meet the criterion Ki < 3 nM? COc1cc(-c2sc(NC(=O)N3CC[S+]([O-])CC3)nc2-c2cccc(C#N)c2)cc(C)n1 [Example 16.3]
(A) 0

(Q) Does this compound meet the criterion Ki < 3 nM? Cc1cc(-c2sc(NC(=O)N3CCN(CC(C)(C)O)CC3)nc2-c2cccc(C#N)c2)cc(C)n1 [Example 4.34]
(A) 0

(Q) Does this compound meet the criterion Ki < 3 nM? Cc1cc(-c2sc(NC(=O)N3CC(C#N)(CO)C3)nc2-c2cccc(C#N)c2)cc(C)n1 [Example 6.64]
(A) 1

(Q) Does this compound meet the criterion Ki < 3 nM? Cc1cc(-c2sc(NC(=O)N3CCC4(CC3)CN(C)C(=O)N4)nc2-c2cccc(C#N)c2)cc(C)n1 [Example 6.103]
(A) 1

(Q) Does this compound meet the criterion Ki < 3 nM? Cc1cc(-c2sc(NC(=O)N3CCC4(CC3)CN(C)C(=O)N4C)nc2-c2cccc(C#N)c2)cc(C)n1 [Example 6.89]
(A) 0

(Q) Does this compound meet the criterion Ki < 3 nM? Cc1cc(-c2sc(NC(=O)N3CCOC[C@H]3CO)nc2-c2cccc(C#N)c2)cc(C)n1 [Example 6.88]
(A) 0
